# SUBJECT OF TEST: T1, Brn2 DNA-binding domain (BD-Brn2) (Mus musculus (B6), UniProt P31360 336-435)
# T1 sequence: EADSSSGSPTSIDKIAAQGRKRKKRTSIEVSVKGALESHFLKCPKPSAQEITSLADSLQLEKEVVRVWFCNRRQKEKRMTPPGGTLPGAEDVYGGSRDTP
# PROTOCOL SUMMARY: EMSA; 10% glycerol, 20 mM HEPES pH 7.8, 45 mM KCl, 10 mM NaCl, 1 mM EDTA, 1 mM DTT, 0.2 ug/uL BSA, 0.1% NP-40, 50 ng poly-dIdC; 20 ng each GST protein; room temperature 30 min (heterodimers 4 C); 6% PAGE 0.25x TBE
# MEASUREMENT CONDITIONS: protein: recombinant; tags: GST (N-terminal, pGEX-6P-1); label: 32P-dCTP fill-in of the 5' (dG)5 overhangs of both strands (Methods; control probes are given with GGG)
READOUT LABEL: binding result

Worked examples follow.
BINDER	READOUT LABEL	RESULT
105 (dsDNA) DNA 1: GGGGGATTTTTTAAAAAATTAGACTACCACAAATCAACTGTCCCCC DNA 2: GGGGGACAGTTGATTTGTGGTAGTCTAATTTTTTAAAAAATCCCCC	binding result	binds
108 (dsDNA) DNA 1: GGGGGCATCTTATCGTTAATATATACGTTTGTTACATATACCCCC DNA 2: GGGGGTATATGTAACAAACGTATATATTAACGATAAGATGCCCCC	binding result	binds
15 (dsDNA) DNA 1: GGGGGAGATCTTTACAAATTTCTATATTAGAGTTTTTTGTCCCCC DNA 2: GGGGGACAAAAAACTCTAATATAGAAATTTGTAAAGATCTCCCCC	binding result	no binding
86 (dsDNA) DNA 1: GGGGGAGTTTAGTTTGTAGAGTACTTACCTAGCAGCACAAAGCCCTGCCCCC DNA 2: GGGGGCAGGGCTTTGTGCTGCTAGGTAAGTACTCTACAAACTAAACTCCCCC	binding result	no binding
16b (dsDNA) DNA 1: GGGGGGTAGCTTCACAAAGTGATTAACACATGGATACCCCC DNA 2: GGGGGTATCCATGTGTTAATCACTTTGTGAAGCTACCCCCC	binding result	binds

Query: Could you share which binding result value was measured for 13 (dsDNA) DNA 1: GGGGGTCTCCTGCTTTGTAGTCACAGAGTAGTCAAGAAGGGCTCCCCC DNA 2: GGGGGAGCCCTTCTTGACTACTCTGTGACTACAAAGCAGGAGACCCCC ?
Reply: no binding

Query: Could you share which binding result value was measured for 8 (dsDNA) DNA 1: GGGGGGCTGTAACAGAATACCTGACAAAAGCAACTTCCCCC DNA 2: GGGGGAAGTTGCTTTTGTCAGGTATTCTGTTACAGCCCCCC ?
Reply: no binding

Query: Could you share which binding result value was measured for 128 (dsDNA) DNA 1: GGGGGAATATCAGTGTAATGATTAACAGACAATGGCAGAGGCCCCC DNA 2: GGGGGCCTCTGCCATTGTCTGTTAATCATTACACTGATATTCCCCC ?
Reply: no binding
